Endpoint Label: melting point

> print(dat)
                                   molecule         result
1  Cc1ccccc1NC(=O)CN1C[C@@H](C)N(S(=O)(=O)c2cccc(N)c2)[C@@H](C)C1  202 to 203 °C
2  CC1(C)OCC(Cn2c(=O)sc3c(=O)[nH]c(N)nc32)O1 (stereo unspecified)  222 to 225 °C
3                  COc1ccc(-c2cc(=S)ss2)cc1  110 to 111 °C
4       O=C(Cc1ccc(OCc2ccccc2)cc1)P(=O)(O)O  112 to 113 °C
5  CC(=O)c1c(C)c2c(c(C)c1O)OC(C)(C)C(C)C2 (stereo unspecified)    87 to 90 °C
6  CCC(=O)N1Cc2ccccc2C2(Cc3ccc(Cl)cc3O2)C1 (stereo unspecified)  106 to 107 °C

* * *

Endpoint Label: melting point

> print(dat)
                                    compound  endpoint.label         result
 1  CCCCCCCCCCCCCCCCCC(=O)SC1CCN(C(C(=O)OC)c2ccccc2F)CC1 (configuration not stated)   melting point    50 to 52 °C
 2                 O=C(O)c1cn2c(nc1=O)CCCCC2   melting point         198 °C
 3  O=C1C(=O)c2ccccc2C2=C1SCC(CN1CCN(c3ccc(F)cc3)CC1)O2 (configuration not stated)   melting point  180 to 182 °C
 4             CC(C)(C)NC(=S)Nc1cc(F)cc(F)c1   melting point  140 to 142 °C
 5  Cc1c(F)c(Oc2ccc(F)c(F)c2)nc(Oc2cc(C(F)(F)F)nn2C)c1F   melting point          93 °C
 6  Cc1c(C(=O)Nc2ccc(OCCO)cc2)nnn1Cc1ccc(Cl)c(Cl)c1   melting point         140 °C
 7  CC(C)=CC(O)C(Br)(Br)Br (configuration not stated)   melting point  81.5 to 82 °C
 8  O=C1NCC(Cc2ccccc2-c2ccccc2)O1 (configuration not stated)   melting point  146 to 148 °C
 9           COc1cc2c(cc1OC)CCCCC(C(=O)O)=C2   melting point  200 to 201 °C
10  CC1N=C(c2ccccc2)c2cc(Br)ccc2NC1=O (configuration not stated)   melting point  210 to 212 °C
11          Cc1nc(-c2cccc(C(F)(F)F)c2)ccc1CO   melting point    73 to 75 °C
12     Cc1nnc2n1-c1ccc(Br)cc1C(c1ccccc1)=NC2   melting point  268 to 270 °C
13         Cc1cccc(S(=O)(=O)Nc2onc(C)c2Br)c1   melting point  138 to 140 °C
14                CCOC(=O)COc1ccc2[nH]ccc2c1   melting point    74 to 77 °C
15  Cc1nc(S(=O)Cc2ccc(Cl)cc2)nc2c1CCCC2 (configuration not stated)   melting point         127 °C
16  CCOCc1nc2c(N)nc3cc(-c4ccc(F)nc4)cnc3c2n1CC(C)(C)F   melting point  198 to 199 °C
17  COc1cc(CCCCCC2OCCO2)ccc1OCc1nc(-c2ccccc2)oc1C   melting point    81 to 82 °C
18               CS(=O)(=O)Nc1cc(F)c(Cl)cc1I   melting point  123 to 124 °C
19  COc1cccc(CN2CCC3(CC2)CSC2=C(O3)c3ccccc3C(=O)C2=O)c1   melting point  129 to 131 °C
20  CC(C)(C)[Si](C)(C)Oc1c(I)cc(Cl)c2cccnc12   melting point    65 to 67 °C
21  O=S(=O)(Nc1ncnc(Cl)c1Cc1cccc2ccccc12)c1ccc(Cl)cc1   melting point  202 to 203 °C
22      Cc1ccc(C(C)(C)C)c(O)c1C(=O)Oc1ccccc1   melting point    71 to 72 °C
